Molecular target: DNA topoisomerase 2-alpha (Homo sapiens, UniProt P11388)
Sequence (P11388 whole entry): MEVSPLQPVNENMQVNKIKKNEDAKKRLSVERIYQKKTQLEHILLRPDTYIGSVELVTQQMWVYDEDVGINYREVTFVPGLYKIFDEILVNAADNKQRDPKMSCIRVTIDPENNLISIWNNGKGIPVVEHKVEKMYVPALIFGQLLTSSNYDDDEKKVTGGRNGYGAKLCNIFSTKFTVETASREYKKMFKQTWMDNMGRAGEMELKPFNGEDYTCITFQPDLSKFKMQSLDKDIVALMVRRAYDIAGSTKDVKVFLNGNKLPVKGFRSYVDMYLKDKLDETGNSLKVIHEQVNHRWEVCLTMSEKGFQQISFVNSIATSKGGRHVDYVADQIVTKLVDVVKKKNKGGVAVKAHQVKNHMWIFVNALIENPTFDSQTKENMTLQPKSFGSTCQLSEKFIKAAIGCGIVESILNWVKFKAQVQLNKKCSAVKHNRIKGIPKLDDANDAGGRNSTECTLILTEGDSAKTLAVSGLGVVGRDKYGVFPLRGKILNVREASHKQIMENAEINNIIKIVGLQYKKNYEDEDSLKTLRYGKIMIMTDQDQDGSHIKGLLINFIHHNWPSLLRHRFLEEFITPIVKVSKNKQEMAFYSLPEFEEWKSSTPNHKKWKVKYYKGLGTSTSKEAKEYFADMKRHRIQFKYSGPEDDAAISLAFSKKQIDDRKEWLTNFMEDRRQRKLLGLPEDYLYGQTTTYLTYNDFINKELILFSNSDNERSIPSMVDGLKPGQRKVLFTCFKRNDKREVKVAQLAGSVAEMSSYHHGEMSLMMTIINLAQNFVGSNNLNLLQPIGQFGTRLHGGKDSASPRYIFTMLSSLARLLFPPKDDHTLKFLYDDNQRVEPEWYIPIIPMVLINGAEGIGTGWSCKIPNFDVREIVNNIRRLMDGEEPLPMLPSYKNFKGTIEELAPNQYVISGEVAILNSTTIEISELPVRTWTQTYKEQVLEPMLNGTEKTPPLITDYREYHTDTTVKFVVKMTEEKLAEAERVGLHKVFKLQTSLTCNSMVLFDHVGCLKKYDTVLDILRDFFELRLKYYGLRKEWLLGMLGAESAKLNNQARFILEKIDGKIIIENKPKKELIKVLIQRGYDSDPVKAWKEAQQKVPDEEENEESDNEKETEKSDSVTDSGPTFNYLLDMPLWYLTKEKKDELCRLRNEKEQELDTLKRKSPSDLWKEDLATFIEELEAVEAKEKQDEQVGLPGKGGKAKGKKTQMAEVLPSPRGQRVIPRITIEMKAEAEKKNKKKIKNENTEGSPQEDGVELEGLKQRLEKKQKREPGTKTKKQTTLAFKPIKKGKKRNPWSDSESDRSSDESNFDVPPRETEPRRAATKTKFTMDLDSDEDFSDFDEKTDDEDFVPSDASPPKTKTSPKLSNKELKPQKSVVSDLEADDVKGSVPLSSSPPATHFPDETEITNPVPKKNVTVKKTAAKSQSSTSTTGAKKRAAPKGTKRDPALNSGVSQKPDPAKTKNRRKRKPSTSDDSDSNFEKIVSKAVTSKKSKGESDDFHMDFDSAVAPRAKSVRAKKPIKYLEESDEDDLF
Assay: Inhibition of human topoisomerase 2alpha mediated decatenation at 30 uM using kDNA as susbtrate preincubated for 20 mins followed by substrate and ATP addition and measured after 1 hr by ethidium bromide staining based gel electrophoresis method relative to control
assay_readout: inhibition
Write the figure, then the unit, nothing else.

Field: example entries. Status: answers known.
mol: COc1ccc(F)cc1-c1ccnc2c(OC)c(NC(C)=O)ccc12
inhibition: 0%

mol: CC(=O)Nc1ccc2c(-c3cccc(C(F)(F)F)c3)ccnc2c1O
inhibition: 97%

Find inhibition (DNA topoisomerase 2-alpha (Homo sapiens, UniProt P11388)) for the entry `CC(=O)Nc1ccc2c(-c3cccs3)ccnc2c1O`
100%

Find inhibition (DNA topoisomerase 2-alpha (Homo sapiens, UniProt P11388)) for the entry `O=C(CN1CCOCC1)Nc1ccc2c(-c3cc4ccccc4o3)ccnc2c1O`
100%

Find inhibition (DNA topoisomerase 2-alpha (Homo sapiens, UniProt P11388)) for the entry `CC(=O)Nc1ccc2c(-c3cc4ccccc4o3)ccnc2c1O`
100%

Find inhibition (DNA topoisomerase 2-alpha (Homo sapiens, UniProt P11388)) for the entry `COc1c(NC(C)=O)ccc2c(-c3cc(F)ccc3O)ccnc12`
0%

Find inhibition (DNA topoisomerase 2-alpha (Homo sapiens, UniProt P11388)) for the entry `CC(=O)Nc1ccc2c(-c3ccc(C(F)(F)F)cc3)ccnc2c1O`
97%

---

Target: DNA topoisomerase 2-alpha (Homo sapiens, UniProt P11388)
Experiment: Inhibition of human topoisomerase 2alpha mediated decatenation at 30 uM using kDNA as susbtrate preincubated for 20 mins followed by substrate and ATP addition and measured after 1 hr by ethidium bromide staining based gel electrophoresis method relative to control
Classify by measured inhibition: Y if it is equal to or exceeds 1%, N if it is smaller.

Example entries begin here.
mol: COc1c(NC(C)=O)cc(OC)c2c(-c3ccccc3NC(=O)c3ccccc3)ccnc12
category: N
//
mol: CC(=O)Nc1ccc2c(-c3ccsc3)ccnc2c1O
category: Y
//
mol: CC(=O)Nc1ccc2c(-c3cc(C(F)(F)F)ccc3O)ccnc2c1O
category: Y
//
mol: CC(=O)Nc1ccc2c(-c3cncnc3)ccnc2c1O
category: N
//
mol: O=C(CCN1CCOCC1)Nc1ccc2c(-c3cc(F)ccc3O)ccnc2c1O
category: Y
//
mol: CC(=O)Nc1cccc(-c2ccnc3c(O)c(NC(C)=O)ccc23)c1
category: Y

In plain terms: is recorded inhibition at least 1% for `O=C(CCN1CCOCC1)Nc1ccc2c(-c3cc4ccccc4o3)ccnc2c1O` ?
Y

---

Here, each record is paired with measured pEC50 data.
Tested on: SW-620
Experiment: Cytotoxicity against human SW620 organoids assessed as cell death with loss of membrane integrity after 72 hrs by CellTox Green assay
Assay type: functional, cell-based
Conditions: SW-620, 72 h
pEC50: −log10 of the molar value.

mol: CC(=O)Nc1ccc2c(-c3ccoc3)ccnc2c1O
val: < 4.52

Return reported pEC50; argument: `O=C(CCN1CCOCC1)Nc1ccc2c(-c3cc(F)ccc3O)ccnc2c1O`
4.80

Return reported pEC50; argument: `CC(=O)Nc1ccc2c(-c3cc4ccccc4o3)ccnc2c1O`
< 4.52

Return reported pEC50; argument: `CC(=O)Nc1ccc(-c2ccnc3c(O)c(NC(C)=O)ccc23)cc1`
< 4.52

Return reported pEC50; argument: `O=C(CN1CCOCC1)Nc1ccc2c(-c3cc4ccccc4o3)ccnc2c1O`
4.66

Return reported pEC50; argument: `COc1cc(NC(C)=O)c(O)c2nccc(-c3ccccc3NC(=O)c3ccccc3)c12`
< 4.52
